Reference source: patent US9978954B2

experimental_protocol: Evaluation of solubility in organic solvents (visual observation of complete dissolution)
Assay type: physicochemical
particulars: toluene, 80° C.
Reported solubility (solute concentration completely dissolved) values for a set of molecules

For CCCCCCCCc1ccc(-c2ccc(-c3c4c(c(-c5ccc(-c6ccc(CCCCCCCC)c(C#N)c6)s5)c5nsnc35)N=S=N4)s2)cc1C#N [Compound (C26)] the molecule record lists solubility (solute concentration completely dissolved) as ≥ 0.3 wt %

For FC(F)(F)Oc1ccccc1-c1ccc(-c2c3c(c(-c4ccc(-c5ccccc5OC(F)(F)F)s4)c4nsnc24)N=S=N3)s1 [Compound (RR1), reference compound] the molecule record lists solubility (solute concentration completely dissolved) as ≥ 0.1 wt %

For FC(F)(F)Sc1cccc(-c2ccc(-c3c4c(c(-c5ccc(-c6cccc(SC(F)(F)F)c6)s5)c5nsnc35)N=S=N4)s2)c1 [Compound (C6)] the molecule record lists solubility (solute concentration completely dissolved) as ≥ 0.1 wt %

###

experimental_protocol: Evaluation of solubility in organic solvents (visual observation of complete dissolution)
Assay type: physicochemical
particulars: chlorobenzene, 100° C.
assay_readout: solubility (solute concentration completely dissolved)

Record excerpt, results attached:
INSERT INTO results (compound, value) VALUES
  ('CCCCCCCCCCCCCCc1cc(-c2ccc(-c3c4c(c(-c5ccc(-c6ccc(C#N)c(CCCCCCCCCCCCCC)c6)s5)c5nsnc35)N=S=N4)s2)ccc1C#N', '≥ 0.3 wt %'),
  ('FC(F)(F)c1ccc(-c2ccc(-c3c4c(c(-c5ccc(-c6ccc(C(F)(F)F)cc6)s5)c5nsnc35)N=S=N4)s2)cc1 [Compound (RC2), reference compound]', '< 0.03 wt %');

For FC(F)(F)Sc1ccc(-c2ccc(-c3c4c(c(-c5ccc(-c6ccc(SC(F)(F)F)cc6)s5)c5nsnc35)N=S=N4)s2)cc1 [Compound (RC5), reference compound] the compound record lists solubility (solute concentration completely dissolved) as < 0.03 wt %

###

experimental_protocol: Evaluation of solubility in organic solvents (visual observation of complete dissolution)
Format: physicochemical
particulars: mesitylene, 60° C.
assay_readout: solubility (solute concentration completely dissolved)

For CCCCCCCCCCC(F)(F)c1cccc(-c2ccc(-c3c4c(c(-c5ccc(-c6cccc(C(F)(F)CCCCCCCCCC)c6)s5)c5nsnc35)N=S=N4)s2)c1 [Compound (C4)] the compound record lists solubility (solute concentration completely dissolved) as ≥ 0.1 wt %

For CCCCCCCCc1ccc(-c2ccc(-c3c4c(c(-c5ccc(-c6ccc(CCCCCCCC)c(C(F)(F)F)c6)s5)c5nsnc35)N=S=N4)s2)cc1C(F)(F)F [Compound (C25)] the compound record lists solubility (solute concentration completely dissolved) as ≥ 0.3 wt %

For CCCCCCCCCCCCc1cc(-c2ccc(-c3c4c(c(-c5ccc(-c6ccc(C(F)(F)F)c(CCCCCCCCCCCC)c6)s5)c5nsnc35)N=S=N4)s2)ccc1C(F)(F)F [Compound (C27)] the compound record lists solubility (solute concentration completely dissolved) as ≥ 0.3 wt %

For CCCCCCCCc1cc(-c2ccc(-c3c4c(c(-c5ccc(-c6ccc(C(F)(F)F)c(CCCCCCCC)c6)s5)c5nsnc35)N=S=N4)s2)ccc1C(F)(F)F [Compound (C24)] the compound record lists solubility (solute concentration completely dissolved) as ≥ 0.3 wt %

For CCCCCCc1ccc(-c2ccc(-c3c4c(c(-c5ccc(-c6ccc(CCCCCC)c(C#N)c6)s5)c5nsnc35)N=S=N4)s2)cc1C#N [Compound (C7)] the compound record lists solubility (solute concentration completely dissolved) as ≥ 0.1 wt %

For CCCCCCc1ccc(-c2ccc(-c3c4c(c(-c5ccc(-c6ccc(CCCCCC)c(C(F)(F)F)c6)s5)c5nsnc35)N=S=N4)s2)cc1C(F)(F)F [Compound (C9)] the compound record lists solubility (solute concentration completely dissolved) as ≥ 0.1 wt %

For CCCCCCCCCCC(F)(F)c1ccc(-c2ccc(-c3c4c(c(-c5ccc(-c6ccc(C(F)(F)CCCCCCCCCC)cc6)s5)c5nsnc35)N=S=N4)s2)cc1 [Compound (RC3), reference compound] the compound record lists solubility (solute concentration completely dissolved) as < 0.03 wt %

###

Reported solubility (solute concentration completely dissolved) values for a set of compounds
experimental_protocol: Evaluation of solubility in organic solvents (visual observation of complete dissolution)
Format: physicochemical
particulars: chloroform, 25° C. (room temperature)

For CCCCCCCCc1cc(-c2ccc(-c3c4c(c(-c5ccc(-c6ccc(C#N)c(CCCCCCCC)c6)s5)c5nsnc35)N=S=N4)s2)ccc1C#N the compound record lists solubility (solute concentration completely dissolved) as ≥ 0.1 wt %

For CCCCCCCc1cc(-c2ccc(-c3c4c(c(-c5ccc(-c6ccc(C#N)c(CCCCCCC)c6)s5)c5nsnc35)N=S=N4)s2)ccc1C#N the compound record lists solubility (solute concentration completely dissolved) as ≥ 0.2 wt %

###

experimental_protocol: Evaluation of solubility in organic solvents (visual observation of complete dissolution)
Format: physicochemical
particulars: mesitylene, 80° C.
assay_readout: solubility (solute concentration completely dissolved)

INSERT INTO measurements (compound, value) VALUES
  ('CCCCCCc1ccc(-c2ccc(-c3c4c(c(-c5ccc(-c6ccc(CCCCCC)c(OC(F)(F)F)c6)s5)c5nsnc35)N=S=N4)s2)cc1OC(F)(F)F [Compound (C11)]', '≥ 0.1 wt %');

For CCCCCCc1ccc(-c2ccc(-c3c4c(c(-c5ccc(-c6ccc(CCCCCC)c(C(F)(F)F)c6)s5)c5nsnc35)N=S=N4)s2)cc1C(F)(F)F [Compound (C9)] the compound record lists solubility (solute concentration completely dissolved) as ≥ 0.5 wt %

For CCCCCCc1ccc(-c2ccc(-c3c4c(c(-c5ccc(-c6ccc(CCCCCC)c(C#N)c6)s5)c5nsnc35)N=S=N4)s2)cc1C#N [Compound (C7)] the compound record lists solubility (solute concentration completely dissolved) as ≥ 0.5 wt %

###

Reported solubility (solute concentration completely dissolved) values for a set of compounds
experimental_protocol: Evaluation of solubility in organic solvents (visual observation of complete dissolution)
Format: physicochemical
particulars: ortho-dichlorobenzene, 80° C.

Record excerpt, results attached:
INSERT INTO measurements (compound, value) VALUES
  ('CCCCC(CC)Cc1cc(-c2ccc(-c3c4c(c(-c5ccc(-c6ccc(C(F)(F)F)c(CC(CC)CCCC)c6)s5)c5nsnc35)N=S=N4)s2)ccc1C(F)(F)F (stereo not drawn)', '≥ 0.3 wt %'),
  ('FC(F)(F)c1cccc(-c2ccc(-c3c4c(c(-c5ccc(-c6cccc(C(F)(F)F)c6)s5)c5nsnc35)N=S=N4)s2)c1', '≥ 0.1 wt %');

For CCCCCCCCCCCCCCc1cc(-c2ccc(-c3c4c(c(-c5ccc(-c6ccc(C#N)c(CCCCCCCCCCCCCC)c6)s5)c5nsnc35)N=S=N4)s2)ccc1C#N the compound record lists solubility (solute concentration completely dissolved) as ≥ 0.3 wt %

For CCCCCCCCCCc1cc(-c2ccc(-c3c4c(c(-c5ccc(-c6ccc(C#N)c(CCCCCCCCCC)c6)s5)c5nsnc35)N=S=N4)s2)ccc1C#N the compound record lists solubility (solute concentration completely dissolved) as ≥ 0.3 wt %

For CCCCCCCCCCCCc1ccc(-c2ccc(-c3c4c(c(-c5ccc(-c6ccc(CCCCCCCCCCCC)c(C(F)(F)F)c6)s5)c5nsnc35)N=S=N4)s2)cc1C(F)(F)F the compound record lists solubility (solute concentration completely dissolved) as ≥ 0.3 wt %

For FC(F)(F)Sc1cccc(-c2ccc(-c3c4c(c(-c5ccc(-c6cccc(SC(F)(F)F)c6)s5)c5nsnc35)N=S=N4)s2)c1 the compound record lists solubility (solute concentration completely dissolved) as ≥ 0.1 wt %

###

Reported solubility (solute concentration completely dissolved) values for a set of compounds
experimental_protocol: Evaluation of solubility in organic solvents (visual observation of complete dissolution)
Assay type: physicochemical
particulars: chloroform, 60° C.

For CCCCCCCCCCc1cc(-c2ccc(-c3c4c(c(-c5ccc(-c6ccc(C#N)c(CCCCCCCCCC)c6)s5)c5nsnc35)N=S=N4)s2)ccc1C#N the compound record lists solubility (solute concentration completely dissolved) as ≥ 0.2 wt %

For CCCC(C)CCc1cc(-c2ccc(-c3c4c(c(-c5ccc(-c6ccc(C#N)c(CCC(C)CCC)c6)s5)c5nsnc35)N=S=N4)s2)ccc1C#N (stereo not drawn) the compound record lists solubility (solute concentration completely dissolved) as ≥ 0.2 wt %

For CCCCCCc1cc(-c2ccc(-c3c4c(c(-c5ccc(-c6ccc(C#N)c(CCCCCC)c6)s5)c5nsnc35)N=S=N4)s2)ccc1C#N the compound record lists solubility (solute concentration completely dissolved) as ≥ 0.05 wt %

###

experimental_protocol: Evaluation of solubility in organic solvents (visual observation of complete dissolution)
Format: physicochemical
particulars: toluene, 25° C.
assay_readout: solubility (solute concentration completely dissolved)

Record excerpt, results attached:
INSERT INTO results (molecule, value) VALUES
  ('CCCCCCc1ccc(-c2ccc(-c3c4c(c(-c5ccc(-c6ccc(CCCCCC)c(C(F)(F)F)c6)s5)c5nsnc35)N=S=N4)s2)cc1C(F)(F)F', '≥ 0.03 wt %'),
  ('CCCCCCCCCCC(F)(F)c1cccc(-c2ccc(-c3c4c(c(-c5ccc(-c6cccc(C(F)(F)CCCCCCCCCC)c6)s5)c5nsnc35)N=S=N4)s2)c1', '≥ 0.03 wt %'),
  ('FC(F)(F)c1ccccc1-c1ccc(-c2c3c(c(-c4ccc(-c5ccccc5C(F)(F)F)s4)c4nsnc24)N=S=N3)s1 [Compound (RR2), reference compound]', '≥ 0.1 wt %');

For CCCCC(CC)Cc1ccc(-c2ccc(-c3c4c(c(-c5ccc(-c6ccc(CC(CC)CCCC)c(C(F)(F)F)c6)s5)c5nsnc35)N=S=N4)s2)cc1C(F)(F)F (stereo not shown) the molecule record lists solubility (solute concentration completely dissolved) as ≥ 0.3 wt %
